B1: TRIM29 (parent)
chain: RKCPVHGKTMELFCQTDQTCICYL

Variants of: B1
Test: protein stability index of a GFP-peptide fusion (GPS, HEK-293T) (PSI 1-6); higher = more stable;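 further: lentivirally expressed fusions sorted by FACS into six bins by GFP to DsRed ratio, PSI derived from sequencing read proportions per bin multiplied by bin number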
Settings: c terminus: a fixed tail appended
Assay Endpoint: protein stability index

• RKCPVHGKTMELKCQTDQTCICYL [F13K] = 2.99
• RKCPVHGKTMELFCQTDQTDICYL [C20D] = 3.16
• RKCPVHGKTMELFCQTDQICICYL [T19I] = 3.16
• RKCPVHGKTMELFCQTDQTYICYL [C20Y] = 2.78
